- System: HEK293 cells
- methodNotes: Preliminary screening as DNA vectors, GFP transfection of HEK293 cells
- Format: cell-based
- assayConditions: HEK293 cells; lipid/DOPE liposome with 75 ng plasmid DNA (psin-EGFP-IRES-Puro); number of cells expressing GFP divided by total number of nuclei (Hoechst)
- Protocol: Cell line: HEK293 cells (ATCC CRL-1573™) Medium: DMEM supplemented with 10% fetal bovine serum (Invitrogen) Mode of screening: cell transfection on 96-well plates Detection (readout): percentage of the number of GFP fluorescent cells relative to the total number of cells (the total number of cells was measured using nucleus dye Hoechst—see FIG. 2). […] 4. […] The absolute transfection efficiency was calculated as follows: […]
What Absolute DNA transfection efficiency in HEK293 cells was measured for each of the following?
Answers are plain numbers, in %.

In plain terms, `CCCCCCNc1nc(NCCCCCC)nc(NCCN2CCOCC2)n1` has a documented Absolute DNA transfection efficiency in HEK293 cells of 0.0

In plain terms, `CCCCCCCCCCCCCCCCCCNc1nc(NCCCCCCCCCCCCCCC)nc(NCCN(C)C)n1` has a documented Absolute DNA transfection efficiency in HEK293 cells of 0.0

In plain terms, `CCCCCCCCCCCCCCCCCCSc1nc(NCCCN2CCN(C)CC2)nc(SCCCCCCCCCC)n1` has a documented Absolute DNA transfection efficiency in HEK293 cells of 6.5

In plain terms, `CCCCCCCCCCCCCCSc1nc(NCCN2CCCCC2)nc(SCCCCCCCCCCC)n1` has a documented Absolute DNA transfection efficiency in HEK293 cells of 3.7

In plain terms, `CCCCCCCCCCCCCCCCCCSc1nc(NCCN(C)C)nc(SCCCCCCCCCCCCCCCC)n1` has a documented Absolute DNA transfection efficiency in HEK293 cells of 1.2

In plain terms, `CCCCCCCCCCCCCCSc1nc(NCC2CCN(C)CC2)nc(SCCCCCCCCCCCC)n1` has a documented Absolute DNA transfection efficiency in HEK293 cells of 6.5

In plain terms, `CCCCCCCCCCCCCCCCCCSc1nc(NCCCN2CCN(C)CC2)nc(SCCCCCCCCCCCCCCCC)n1` has a documented Absolute DNA transfection efficiency in HEK293 cells of 0.4

In plain terms, `CCCCCCCCCCCCCCCCCCSc1nc(NCCCN2CCN(C)CC2)nc(SCCCCCCCCC)n1` has a documented Absolute DNA transfection efficiency in HEK293 cells of 0.0

In plain terms, `CCCCCCCCCNc1nc(NCCCCCC)nc(NCCN2CCCC2)n1` has a documented Absolute DNA transfection efficiency in HEK293 cells of 0.3

In plain terms, `CCCCCCCCCCCCCCSc1nc(NCCN2CCOCC2)nc(SCCCCCCCCCCCCCC)n1` has a documented Absolute DNA transfection efficiency in HEK293 cells of 0.0

Please state, for each entry, its recorded Absolute DNA transfection efficiency in HEK293 cells.
1. CCCCCCCCCCCCCCCSc1nc(NCCN2CCCC2)nc(SCCCCCCCCCCC)n1
2. CCCCCCCCCCCCCCCCCCSc1nc(NCCN(CC)CC)nc(SCCCCCCCCCCCCCCCC)n1
3. CCCCCCCCCCCCCNc1nc(NCCCCCCCCC)nc(NCCN2CCN(C)CC2)n1
4. CCCCCCCCCCCCCCCCCCNc1nc(NCCCCCCCCCCCCCCCCCC)nc(NCC2CCN(C)CC2)n1
5. CCCCCCCCNc1nc(NCCCCCCC)nc(NCCN2CCN(C)CC2)n1
6. CCCCCCCCCCCCCNc1nc(NCCCCCCCC)nc(NCCN2CCN(C)CC2)n1

1: 7.4; 2: 1.0; 3: 0.3; 4: 0.0; 5: 0.0; 6: 0.0

* * *

- Tested on: HEK293 cells
- methodNotes: Preliminary screening as DNA vectors, GFP transfection of HEK293 cells
- Type: cell-based
- assayConditions: amino lipid/DOPE liposome with 75 ng plasmid DNA (psin-EGFP-IRES-Puro); number of GFP-expressing cells divided by total nuclei (Hoechst)
What Absolute DNA transfection efficiency in HEK293 cells was measured for each of the following?
Give bare numbers, in %.

Known Absolute DNA transfection efficiency in HEK293 cells results, listed for orientation:
In plain terms, `CCCCCCCCCCSc1nc(NCCN2CCN(C)CC2)nc(SCCCCCCCC)n1` has a documented Absolute DNA transfection efficiency in HEK293 cells of 19.5

In plain terms, `CCCCCCCCCCCSc1nc(NCC2CCN(C)CC2)nc(SCCCCCC)n1` has a documented Absolute DNA transfection efficiency in HEK293 cells of 38.1

In plain terms, CCCCCCCCCCCNc1nc(NCCN2CCOCC2)nc(SCCCCCCCCCCC)n1 [S11N11 D2] has a documented Absolute DNA transfection efficiency in HEK293 cells of 6.3

In plain terms, `CCCCCCCCCCCCCCCCCCNc1nc(NCCCN(C)C)nc(SCCCCCCCCCC)n1` has a documented Absolute DNA transfection efficiency in HEK293 cells of 7.8

In plain terms, CCCCCCCCCSc1nc(NCCCCCC)nc(NCCN2CCOCC2)n1 [S9N6 D2] has a documented Absolute DNA transfection efficiency in HEK293 cells of 2.1

In plain terms, CCCCCCCCCCCSc1nc(NCCN(C)C)nc(SCCCCCCC)n1 [S7S11 D1] has a documented Absolute DNA transfection efficiency in HEK293 cells of 10.8

Please state, for each entry, its recorded Absolute DNA transfection efficiency in HEK293 cells.
1. CCCCCCCCCCCCCCCNc1nc(NCCN(CC)CC)nc(SCCCCCC)n1
2. CCCCCCCCCCCCCCCCNc1nc(NCCN2CCCCC2)nc(SCCCCCC)n1
3. CCCCCCCCCCCCCCCCSc1nc(NCCCCCCCCCCCCCCC)nc(NCCN2CCCCC2)n1

1.2
2.4
2.6

* * *

- Tested on: HEK293 cells
- methodNotes: Preliminary screening as mRNA vectors, EGFP mRNA transfection of HEK293 cells
- Format: cell-based
- assayConditions: EGFP mRNA 50 ng per well, 96-well plates; percentage of GFP fluorescent cells relative to total number of cells (Hoechst)
Assign Criterion met whenever Absolute mRNA transfection efficiency in HEK293 cells does not fall below 4%; assign Criterion not met whenever it does.

Reference set (7 entries):
API: above_or_equal(metric=Absolute mRNA transfection efficiency in HEK293 cells, cutoff=4%) for item CCCCCCCCCCCCCCCNc1nc(NCC2CCN(C)CC2)nc(SCCCCCCCCCCCCCCC)n1 [Compound D10S15N15] Criterion not met

API: above_or_equal(metric=Absolute mRNA transfection efficiency in HEK293 cells, cutoff=4%) for item CCCCCCCCCCCSc1nc(NCCN(CC)CC)nc(SCCCCCC)n1 [Compound D7S6S11] Criterion not met

API: above_or_equal(metric=Absolute mRNA transfection efficiency in HEK293 cells, cutoff=4%) for item CCCCCCCCCNc1nc(NCCN(C)C)nc(SCCCCCCC)n1 [Compound D1S7N9] Criterion met

API: above_or_equal(metric=Absolute mRNA transfection efficiency in HEK293 cells, cutoff=4%) for item CCCCCCCCCCCCCCCCCCNc1nc(NCC2CCN(C)CC2)nc(SCCCCCCCC)n1 [Compound D10S8N18] Criterion met

API: above_or_equal(metric=Absolute mRNA transfection efficiency in HEK293 cells, cutoff=4%) for item CCCCCCCCCCCSc1nc(NCCCCCCCC)nc(NCCN2CCCCC2)n1 [Compound D4S11N8] Criterion met

API: above_or_equal(metric=Absolute mRNA transfection efficiency in HEK293 cells, cutoff=4%) for item CCCCCCCCCCCCCCCCNc1nc(NCCCN(C)C)nc(SCCCCCCCCCCCCCCC)n1 [Compound D6S15N16] Criterion not met

API: above_or_equal(metric=Absolute mRNA transfection efficiency in HEK293 cells, cutoff=4%) for item CCCCCCCCCCCCCNc1nc(NCCN2CCCC2)nc(SCCCCCCCCCC)n1 [Compound D3S10N13] Criterion met

Could you now look at the following compound, please?
API: above_or_equal(metric=Absolute mRNA transfection efficiency in HEK293 cells, cutoff=4%) for item CCCCCCCCCCCCCCSc1nc(NCCCCCC)nc(NCCCN(C)C)n1 [Compound D6S14N6] Criterion met

* * *

- Test system: HEK293 cells
- methodNotes: Preliminary screening as DNA vectors, GFP transfection of HEK293 cells
- Type: cell-based
- assayConditions: HEK293 cells; lipid/DOPE liposome with 75 ng plasmid DNA (psin-EGFP-IRES-Puro); number of cells expressing GFP divided by total number of nuclei (Hoechst)
What Absolute DNA transfection efficiency in HEK293 cells was measured for each of the following?
Answers are plain numbers, in %.

Known Absolute DNA transfection efficiency in HEK293 cells results, listed for orientation:
In plain terms, CCCCCCCCCCCCCCCNc1nc(NCCN2CCCCC2)nc(N(CCCCCCCCCCCC)CCCCCCCCCCCC)n1 [N15^2N12D4] has a documented Absolute DNA transfection efficiency in HEK293 cells of 2.1

In plain terms, CCCCCCCCCCCCCCCCCCSc1nc(NCCN(C)C)nc(SCCCCCCCC)n1 [Compound S8S18D1] has a documented Absolute DNA transfection efficiency in HEK293 cells of 7.6

In plain terms, CCCCCCCCCCCCCCCNc1nc(NCCCCCCCCCCCC)nc(NCCN(C)C)n1 [Compound N12N15D1] has a documented Absolute DNA transfection efficiency in HEK293 cells of 1.5

In plain terms, CCCCCCCCCCCCCCSc1nc(NCCCN2CCOCC2)nc(SCCCCCCCCCCC)n1 [Compound S11S14D8] has a documented Absolute DNA transfection efficiency in HEK293 cells of 8.8

In plain terms, CCCCCCCCCCCCCCCCCCNc1nc(NCCCCCCCCCCCCCCC)nc(NCCN2CCN(C)CC2)n1 [Compound N15N18D5] has a documented Absolute DNA transfection efficiency in HEK293 cells of 0.0

Please state, for each entry, its recorded Absolute DNA transfection efficiency in HEK293 cells.
1. CCCCCCCCCCCCCCCCNc1nc(NCCCCCCCCCCCC)nc(NCCCN(C)C)n1 [Compound N12N16D6]
2. CCCCCCCCCCCCN(CCCCCCCCCCCC)c1nc(NCCN2CCN(C)CC2)nc(N(CCCCCCCCCCCC)CCCCCCCCCCCC)n1 [2N12^2N12D5]

1. 1.9
2. 0.0
